Biological target: Calmodulin-1 (Homo sapiens) (UniProt P0DP23)
Assay: CALM1 binders on microarrays, EGTA buffer, profiling panel, biochemical, small-molecule microarray, Cy5-labelled CALM1 (AID 1111);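 also: labelled calmodulin applied in Tris saline Tween buffer holding calcium plus EGTA and DTT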
Conditions: Cy5-CALM1 binding fluorescence, higher = more signal
Output fulfilled for composite z-score not less than -0.02; output not fulfilled otherwise.

| COMPOUND | CAT |
| --- | --- |
| COC(=O)[C@H](C)NC(=O)CCC1CC(OC(=O)NCCc2ccc(F)cc2)CC2(CCCC(COC(=O)NCCCN3CCCC3=O)O2)O1 (stereo not given in full) | fulfilled |
| CCOC(=O)[C@H](Cc1ccccc1)NC(=O)CCC1CC(OC(=O)NCc2cccc3ccccc23)CC2(CCCC(COC(=O)NCCCN3CCCC3=O)O2)O1 (stereo not given in full) | fulfilled |
| CC(C)C(=O)N[C@@H]1CCCN1C(=O)C=Cc1ccccc1 | fulfilled |
| CCN1C(=O)[C@H]2[C@H]3[C@H](O)[C@H](O)CC(=NNC(=O)OCc4ccc(OC)cc4)[C@H]3CC[C@H]2C1=O | not fulfilled |
| CO[C@H]1COC(=O)[C@H](C)NC(=O)CC=C[C@@H](C)[C@H](OC)COC(=O)CC=C[C@@H]1C | not fulfilled |
| C[C@@H](ON=C1[C@H]2CCn3c(=O)n(-c4ccccc4)c(=O)n3[C@H]2[C@H](O)[C@@H]2O[C@H]12)c1cn([C@H](CO)Cc2ccccc2)nn1 | fulfilled |
| C[C@@H]1CC[C@@H](C(=O)O)N[C@H]1c1ccc(-c2ccco2)cc1 | not fulfilled |
| CC(C)CON=C1C[C@@H](O)[C@@H](O)[C@@H]2[C@@H]3C(=O)N(c4cccc(Oc5ccccc5)c4)C(=O)[C@@H]3CC[C@H]12 | fulfilled |
| CO[C@H]1COC(=O)CC=C[C@@H](C)COC(=O)[C@@H](OCc2ccccc2)C=C[C@@H]1C | not fulfilled |
| CO[C@@H]1COC(=O)CC=C[C@H](C)COC(=O)[C@H](C)NC(=O)CC=C[C@H]1C | not fulfilled |
| C[C@@H](c1ccccc1)N1C(=O)[C@H]2[C@H]3[C@H](O)[C@H](O)CC(=O)[C@@H]3CC[C@H]2C1=O | fulfilled |
| CCCNC(=O)OC[C@H]1O[C@H](CCON=C(C)CCC(=O)OC[C@H]2O[C@H](C#Cc3ccccc3)C=C[C@@H]2Oc2ccc(C)cc2)C=C[C@@H]1Oc1ccc(OC)cc1 | not fulfilled |
| C#CCCCON=C1C[C@@H](O)[C@@H](O)[C@@H]2[C@@H]3C(=O)N(C4CCCCC4)C(=O)[C@@H]3CC[C@H]12 | fulfilled |
| CCCNC(=O)OC[C@H]1O[C@H](CCON=C(C)CCN2CCc3nc(-c4ccccc4)c(-c4ccccc4)cc3C2)C=C[C@@H]1Oc1ccc(OC)cc1 | not fulfilled |
| CC(C)=NOC[C@@H](O)COCc1ccco1 | not fulfilled |

----------
Experiment: S. cerevisiae growth modulation with rapamycin, primary screen, strain BY4716, OD600, 96 h (AID 1091); also: test concentration not given here
Conditions: higher = more signal, called active from +8 up or from −8 down

| MOLECULE | z-score |
| --- | --- |
| CC(C)=CCCC(C)=CCON=C1C[C@@H](O)[C@@H](O)[C@@H]2[C@@H]3C(=O)N([C@@H](C)c4ccccc4)C(=O)[C@@H]3CC[C@H]12 | -0.989 |
| CCN1C(=O)[C@H]2[C@H]3[C@H](O)[C@H](O)CC(=NNC(=O)OCc4ccc(OC)cc4)[C@H]3CC[C@H]2C1=O | 0.41 |
| CO[C@@H]1C=CCC(=O)N2CCC[C@H]2C(=O)OC[C@H](C)C(=O)OC[C@H]1C | -0.606 |
| CC(C)=NOCc1ccc(-c2cn([C@@H]3COC[C@H]3O)nn2)cc1 | -0.738 |
| O=C1[C@H]2[C@H]3[C@H](O)[C@H](O)CC(=NOCc4ccccc4)[C@H]3CC[C@H]2C(=O)N1Cc1ccccc1 | -1.04 |
| CCOC(=O)[C@H](CC(C)C)NC(=O)CCC1CC(OC(=O)NCc2cccc3ccccc23)CC2(CCCC(COC(=O)NCc3ccccc3)O2)O1 (stereo partly drawn) | -0.395 |
| C[C@@H](ON=C1[C@H]2CCn3c(=O)n(-c4ccccc4)c(=O)n3[C@H]2[C@H](O)[C@@H]2O[C@H]12)c1cn([C@H](CO)Cc2ccccc2)nn1 | 0.0121 |
| C[C@@H]1CC[C@@H](C(=O)O)N[C@H]1c1ccc(-c2ccco2)cc1 | -0.476 |
